# credit: the kinase profiling compilation of Christmann-Franck et al. (2016)

biological target: KIT (human); test: KINOMEscan competition binding; settings: compound 10.0 µM
REPORTED_METRIC: kinase still bound, per cent of control (%)

CHEMICAL_STRING: COc1cc2ncn(-c3cc(OCc4ccccc4C(F)(F)F)c(C(N)=O)s3)c2cc1OC
REPORTED_METRIC: kinase still bound, per cent of control
RESULT_VALUE: 30

CHEMICAL_STRING: C[C@@H](Oc1cc(-c2cnn(C3CCNCC3)c2)cnc1N)c1c(Cl)ccc(F)c1Cl
REPORTED_METRIC: kinase still bound, per cent of control
RESULT_VALUE: 43

CHEMICAL_STRING: COc1cc(N2CCN(C)CC2)ccc1Nc1ncc2c(n1)N(C)c1ccccc1C(=O)N2C
REPORTED_METRIC: kinase still bound, per cent of control
RESULT_VALUE: 100

CHEMICAL_STRING: C=CC(=O)Nc1cc(-n2c(=O)ccc3cnc4ccc(-c5cn[nH]c5)cc4c32)ccc1C
REPORTED_METRIC: kinase still bound, per cent of control
RESULT_VALUE: 65

CHEMICAL_STRING: CCN(CC)CCCCNc1ncc2cc(-c3cc(OC)cc(OC)c3)c(NC(=O)NC(C)(C)C)nc2n1
REPORTED_METRIC: kinase still bound, per cent of control
RESULT_VALUE: 100

CHEMICAL_STRING: CCN1CCN(C(=O)Cc2ccc(Nc3ncc(F)c(Nc4ccc(C(=O)Nc5ccccc5Cl)cc4)n3)cc2)CC1
REPORTED_METRIC: kinase still bound, per cent of control
RESULT_VALUE: 1

CHEMICAL_STRING: CN(C)C/C=C/C(=O)Nc1ccc(C(=O)Nc2cccc(Nc3nccc(-c4cccnc4)n3)c2)cc1
REPORTED_METRIC: kinase still bound, per cent of control
RESULT_VALUE: 3.8

CHEMICAL_STRING: O=c1cc(N2CCOCC2)oc2c(-c3cccc4c3sc3ccccc34)cccc12
REPORTED_METRIC: kinase still bound, per cent of control
RESULT_VALUE: 80

CHEMICAL_STRING: Cc1n[nH]c2ccc(-c3cncc(OC[C@@H](N)Cc4c[nH]c5ccccc45)c3)cc12
REPORTED_METRIC: kinase still bound, per cent of control
RESULT_VALUE: 100

----------
test system: FLT3 (human), P36888 [D835H]; assay: KINOMEscan competition binding; details: compound 10.0 µM
Label true (1) when kinase still bound, per cent of control is strictly below 10%; otherwise label false (0).

CHEMICAL_STRING: Cc1n[nH]c2ccc(-c3cncc(OC[C@@H](N)Cc4c[nH]c5ccccc45)c3)cc12
ASSIGNED_LABEL: true (1)

CHEMICAL_STRING: COc1cc(N2CCC(C(N)=O)CC2)ccc1Nc1nc(N)c(Cl)c(Nc2ccccc2S(=O)(=O)C(C)C)n1
ASSIGNED_LABEL: false (0)

CHEMICAL_STRING: O=C(Nc1cccc(Nc2ncc(Br)c(NCCc3cnc[nH]3)n2)c1)N1CCCC1
ASSIGNED_LABEL: true (1)

CHEMICAL_STRING: CCN(CC)CCCCNc1ncc2cc(-c3cc(OC)cc(OC)c3)c(NC(=O)NC(C)(C)C)nc2n1
ASSIGNED_LABEL: false (0)

CHEMICAL_STRING: COc1cc(C(=O)N2CCC(N3CCN(C)CC3)CC2)ccc1Nc1ncc2c(n1)N(C)c1ccccc1C(=O)N2C
ASSIGNED_LABEL: false (0)

CHEMICAL_STRING: CCC(=O)N1CCN(c2ccc(-n3c(=O)ccc4cnc5ccc(-c6cnc7ccccc7c6)cc5c43)cc2C(F)(F)F)CC1
ASSIGNED_LABEL: false (0)

CHEMICAL_STRING: O=C1Nc2ccc(I)cc2/C1=C/c1cc(Br)c(O)c(Br)c1
ASSIGNED_LABEL: false (0)

CHEMICAL_STRING: COc1cc(N2CCN(C)CC2)ccc1Nc1ncc2c(n1)N(C)c1ccccc1C(=O)N2C
ASSIGNED_LABEL: false (0)

CHEMICAL_STRING: N#Cc1c(NC(=O)c2cccc3ccccc23)sc2c1CCCC2
ASSIGNED_LABEL: false (0)

CHEMICAL_STRING: COc1ccc(N(C(=O)Oc2c(C)cccc2C)c2ccnc(Nc3ccc(N4CCN(C)CC4)cc3)n2)c(OC)c1
ASSIGNED_LABEL: true (1)

CHEMICAL_STRING: C=CC(=O)Nc1ccc(C(=O)c2sc(Nc3ccc(N4CCN(C)CC4)cc3OC)nc2N)cc1
ASSIGNED_LABEL: false (0)

CHEMICAL_STRING: CCN(CCO)CCCOc1ccc2c(Nc3cc(CC(=O)Nc4cccc(F)c4)[nH]n3)ncnc2c1
ASSIGNED_LABEL: true (1)

CHEMICAL_STRING: C[C@@H](Oc1cc(-c2cnn(C3CCNCC3)c2)cnc1N)c1c(Cl)ccc(F)c1Cl
ASSIGNED_LABEL: true (1)

CHEMICAL_STRING: COc1cc(C(=O)NC2CCN(C)CC2)ccc1Nc1ncc2c(n1)N(C1CCCC1)CCC(=O)N2C(C)C
ASSIGNED_LABEL: false (0)

CHEMICAL_STRING: C=CC(=O)Nc1cccc(Oc2nc(Nc3ccc(N4CCN(C)CC4)cc3OC)ncc2Cl)c1
ASSIGNED_LABEL: true (1)

CHEMICAL_STRING: O=C(NOC[C@H](O)CO)c1ccc(F)c(F)c1Nc1ccc(I)cc1F
ASSIGNED_LABEL: false (0)

CHEMICAL_STRING: CS(=O)(=O)N1CCN(Cc2cc3nc(-c4cccc5[nH]ncc45)nc(N4CCOCC4)c3s2)CC1
ASSIGNED_LABEL: false (0)
